assay: IANBD-channel fluorescence artefacts in buffer – biochemical, artefact control for cardiac RTF calcium sensitizer project, confirmation (AID 504382); details: IANBD fluorescence interference counterscreen, EC20 Ca2+, at 7.2 µM, hits give high values, scaled: EC20 calcium 0, EC100 calcium 100
Hit rate of the full screen: of about 2,500 compounds, about 460 (18%) were called active. Not all results are given here.

{"compound": "COc1ccc(C(=O)/C=C/c2cn(CC(O)CN3CCOCC3)c3ccccc23)cc1 (stereo unspecified)", "fluorescence artifact activation": "6.56% (inactive)"}
{"compound": "Cc1ccc(C2NC(=O)c3c(sc4c3CCN(C)C4)N2)o1 (stereo unspecified)", "fluorescence artifact activation": "0.12% (inactive)"}
{"compound": "O=S(=O)(CCN(CCS(=O)(=O)C(F)(F)F)CC1CCCO1)C(F)(F)F (stereo unspecified)", "fluorescence artifact activation": "0.02% (inactive)"}
{"compound": "Cc1cc(C)c2c(SC(C)C)nc(N)nc2n1", "fluorescence artifact activation": "5.3% (inactive)"}
{"compound": "CCC(=O)N/C(=N/c1nc(C)cc(C)n1)Nc1ccccc1", "fluorescence artifact activation": "0.29% (inactive)"}
{"compound": "CCCN(CCC)CC(O)Cn1cc(/C=C/C(=O)c2cccs2)c2ccccc21 (stereo unspecified)", "fluorescence artifact activation": "0.1% (inactive)"}
{"compound": "COc1ccc(C(=O)/C=C/c2cn(CC(O)CN3CCN(C)CC3)c3ccccc23)cc1OC (stereo unspecified)", "fluorescence artifact activation": "18.9% (active)"}
{"compound": "Cc1ccc(-c2ccc(CO)o2)cc1N", "fluorescence artifact activation": "28.2% (active)"}
{"compound": "Cc1ccc(C(=O)/C=C/c2cn(CC(O)CN3CCOCC3)c3ccccc23)cc1 (stereo unspecified)", "fluorescence artifact activation": "0.01% (inactive)"}
{"compound": "O=C(/C=C/c1cn(CC(O)CN2CCCCC2)c2ccccc12)c1cccs1 (stereo unspecified)", "fluorescence artifact activation": "14.5% (active)"}
{"compound": "CCC(C)[C@H](NC(=O)N1CCC(C)CC1)C(=O)OC (stereo partly specified)", "fluorescence artifact activation": "-0.05% (inactive)"}
